target or test system: Fyn (UniProt P06241)
Sequence (P06241 whole entry, looked up): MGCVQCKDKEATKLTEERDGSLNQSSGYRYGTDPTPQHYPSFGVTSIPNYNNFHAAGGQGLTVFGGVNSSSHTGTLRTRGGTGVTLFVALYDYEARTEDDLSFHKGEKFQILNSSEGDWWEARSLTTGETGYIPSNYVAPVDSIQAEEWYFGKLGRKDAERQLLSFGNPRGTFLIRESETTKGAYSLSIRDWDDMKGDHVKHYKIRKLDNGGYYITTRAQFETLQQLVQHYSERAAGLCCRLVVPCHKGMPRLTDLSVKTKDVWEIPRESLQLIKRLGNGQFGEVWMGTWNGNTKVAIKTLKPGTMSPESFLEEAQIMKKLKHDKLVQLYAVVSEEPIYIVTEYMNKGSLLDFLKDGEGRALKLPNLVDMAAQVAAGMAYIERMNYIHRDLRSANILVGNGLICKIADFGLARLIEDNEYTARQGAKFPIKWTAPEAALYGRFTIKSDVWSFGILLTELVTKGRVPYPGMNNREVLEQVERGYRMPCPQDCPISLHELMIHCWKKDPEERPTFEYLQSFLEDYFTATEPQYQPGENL
protocol description: phosphorylation enrichment, bacterial display (enrichment ratio); higher = better substrate or ligand; peptides without Tyr show the background;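 further: 11-residue human phosphosite peptides and single-mutation variants displayed on the E. coli surface, counted by deep sequencing, each peptide's frequency after selection divided by its frequency in the unselected input library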;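 further: frequency after pTyr selection over input frequency; kinase dosed for 20-30% of maximal phosphorylation in three min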
# if value of phosphorylation enrichment reaches 0.6, tag Y; if it stays below, tag N

[ask] hey, is phosphorylation enrichment for this one >= 0.6? YQLENYCNGGG [INS_Y108]
[reply] N

[ask] Try IDAICYFRMEN [NPHS2_Y194_YF] next.
[reply] N

[ask] Try KAFDMYSGDVM [FAM3D_Y122] next.
[reply] Y

[ask] Try SWKRRYFLLWA [APBB1IP_Y331_R335W] next.
[reply] N

[ask] Try NTPNAYLRVNV [ADD2_Y440_T439A] next.
[reply] N

[ask] Try FQKNIYSEELR [LMNA_Y211] next.
[reply] Y

[ask] Try YAADYYKLLGN [ROR2_Y646] next.
[reply] N

[ask] Try INSLKYAFNVS [EIF2B5_Y583_I587V_YF] next.
[reply] N

[ask] Try LLEGKYEWQEV [CDKN1B_Y74_P69L] next.
[reply] Y

[ask] Try RNIQQHNSFVS [PRKAR1A_Y373_Y373H] next.
[reply] N

[ask] Try FKTPTYPFLLP [PLD2_Y578_YF] next.
[reply] N

[ask] Try RIVEIYSRRLR [GCH1_Y175_Q180R] next.
[reply] Y

[ask] Try KLPDAYERLIL [G6PD_Y437] next.
[reply] N

[ask] Try HSKGIYYVQLE [MGAT4B_Y262_Q257H] next.
[reply] Y

====

Tested on: AncSZ
protocol description: phosphorylation enrichment, bacterial display (enrichment ratio); higher = better substrate or ligand; peptides without Tyr show the background
So basically every entry gets a class from its phosphorylation enrichment, ranges being small value = under 0.6, mid value = from 0.6 up to 1, large value = 1 and over

[ask] Which phosphorylation enrichment category applies to VGTKRYMAPDV [ACVRL1_Y375_E379D] here?
[reply] small value

[ask] Try RDLEQYVNNVN [PCDH19_Y1097] next.
[reply] large value

[ask] Try NTADYYDLYGG [PTPN11_Y63_G60A] next.
[reply] large value

[ask] Try HHTDEYEYDEL [TGM1_Y134] next.
[reply] large value

[ask] Try RTLIRYANLGN [BEST1_Y131] next.
[reply] large value

[ask] Try PQAVTYATVKH [LILRB4_Y360_K362T] next.
[reply] mid value

[ask] Try HSKGIYYVQLE [MGAT4B_Y262_Q257H] next.
[reply] large value

[ask] Try GACGGYCSVLG [RAB18_Y202] next.
[reply] small value

[ask] Try LFDPDFMKVIL [CYP4A22_Y104_Y104F_YF] next.
[reply] large value

[ask] Try NAPNSYGRRPS [CDKN2A_Y44_I49S] next.
[reply] mid value

[ask] Try KEAVLYPHLPP [SQSTM1_Y383_A381V] next.
[reply] small value

[ask] Try RMETEYGPSVT [MXRA5_Y2717] next.
[reply] mid value

====

target or test system: Jak2 (UniProt O60674)
Sequence (O60674 whole entry, looked up): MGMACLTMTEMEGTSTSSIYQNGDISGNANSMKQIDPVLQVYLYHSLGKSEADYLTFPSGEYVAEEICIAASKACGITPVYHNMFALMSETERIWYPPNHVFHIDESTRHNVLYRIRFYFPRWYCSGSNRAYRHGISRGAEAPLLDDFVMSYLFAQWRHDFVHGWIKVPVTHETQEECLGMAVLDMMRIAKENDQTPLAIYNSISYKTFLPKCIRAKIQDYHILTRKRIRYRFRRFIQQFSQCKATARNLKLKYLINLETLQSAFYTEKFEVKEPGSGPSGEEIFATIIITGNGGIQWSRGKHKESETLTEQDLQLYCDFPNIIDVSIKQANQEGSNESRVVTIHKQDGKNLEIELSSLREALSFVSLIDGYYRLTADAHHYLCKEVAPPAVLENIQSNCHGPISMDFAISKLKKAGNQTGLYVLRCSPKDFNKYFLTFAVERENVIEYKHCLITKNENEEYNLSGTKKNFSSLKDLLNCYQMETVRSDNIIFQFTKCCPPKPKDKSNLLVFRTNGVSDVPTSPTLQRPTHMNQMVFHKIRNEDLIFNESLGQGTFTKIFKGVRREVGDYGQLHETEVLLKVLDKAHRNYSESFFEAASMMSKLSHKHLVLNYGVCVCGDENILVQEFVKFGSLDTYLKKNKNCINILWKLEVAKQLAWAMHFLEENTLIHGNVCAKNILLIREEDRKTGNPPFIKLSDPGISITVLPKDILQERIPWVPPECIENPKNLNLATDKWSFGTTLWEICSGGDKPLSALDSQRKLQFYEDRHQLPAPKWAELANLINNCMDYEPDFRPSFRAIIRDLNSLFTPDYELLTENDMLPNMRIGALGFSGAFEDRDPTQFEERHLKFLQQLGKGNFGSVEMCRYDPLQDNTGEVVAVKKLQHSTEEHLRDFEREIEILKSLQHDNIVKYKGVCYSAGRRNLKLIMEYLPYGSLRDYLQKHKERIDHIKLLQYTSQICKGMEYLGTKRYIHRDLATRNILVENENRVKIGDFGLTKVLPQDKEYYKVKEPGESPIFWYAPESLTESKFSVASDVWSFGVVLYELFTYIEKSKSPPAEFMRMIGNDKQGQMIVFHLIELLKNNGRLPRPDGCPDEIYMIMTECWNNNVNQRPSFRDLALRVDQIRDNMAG
protocol description: phosphorylation enrichment, bacterial display (enrichment ratio); higher = better substrate or ligand; peptides without Tyr show the background
So basically every entry gets a class from its phosphorylation enrichment, ranges being b0 (below 0.6), b1 (0.6 to below 1), b2 (1 or more)

[ask] Which phosphorylation enrichment category applies to RELGKYGLQAY [ALDH2_Y497_E496K] here?
[reply] b0

[ask] Try SSVKLYRVYCD [FGB_Y266_P265L] next.
[reply] b1

[ask] Try PFTDPYFDFEI [ZC3H18_Y371_A368T_YF] next.
[reply] b2

[ask] Try ALDRPYTSKHS [NANS_Y71_E68D] next.
[reply] b1

[ask] Try DNEYAYLKAII [HNF4A_Y288] next.
[reply] b1

[ask] Try GAAMLYYPSVS [GPR143_Y177] next.
[reply] b2

[ask] Try LFVDVYGPSVP [NUBPL_Y109_D105Y_YF] next.
[reply] b2

[ask] Try QLAPQYTFAQG [FLNA_Y1761_YF] next.
[reply] b0

[ask] Try ISRLKYPVSQQ [BTK_Y375] next.
[reply] b0

[ask] Try FEEDPYLVVNP [MCM6_Y810_YF] next.
[reply] b2

[ask] Try GKVADYIPQLP [GLS_Y249_A254P] next.
[reply] b1

[ask] Try SVVAPYEPPEV [TP53_Y220_V218A] next.
[reply] b2
